System: Ros pY2274 in HCC78 cells
experiment.description: pROS1 immunofluorescence assay in HCC78 cells
Type: cell-based
run.parameters: Homo sapiens, HCC78, 4 h, read-out: HCC78-pRos1 pIC50 (converted)
Procedure: pROS1 Immunofluorescence Assay in HCC78 Cells […] The same experiment was performed using total Ros1 antibody (sc-6347) diluted 1/1000 instead of Ros1 pY2274 antibody and an anti-goat antibody conjugated to IRDye800cw as a secondary antibody. RFUs were measured at 800 nM. […]
Note to self: use satisfied only for IC50 readings below 100 nM; a reading exactly at 100 nM still gets not satisfied.

Check if IC50 falls below 100 nM for CC(C)c1ccc(COc2ccc(-c3c(-c4ccncc4)nn4c3C(=O)NCC4)c(F)c2)cc1 [Compound 6] . satisfied

Check if IC50 falls below 100 nM for O=C1NCCn2nc(-c3ccncc3)c(-c3ccc(OCC#Cc4ccccc4)cc3)c21 [Compound 142] . not satisfied

Check if IC50 falls below 100 nM for CC(C)c1ncc(COc2ccc(-c3c(-c4ccncc4)nn4c3C(=O)NCC4)cc2)cn1 [Compound 103] . not satisfied

Check if IC50 falls below 100 nM for CC(C)c1ccc(COc2ccc(-c3c(-c4ccncn4)nn4c3C(=O)NCC4)cc2)cc1 [Compound 158] . not satisfied

Check if IC50 falls below 100 nM for COc1cc(-c2c(-c3ccncc3)nn3c2C(=O)N(C)CC3)ccc1OCc1ccc(C(C)C)cc1 [Compound 33] . satisfied

Check if IC50 falls below 100 nM for CC(C)c1ccc(COc2ccc(-c3c(-c4ccncc4)nn4c3C(=O)NCC4)nc2)cc1 [Compound 12] . not satisfied

Check if IC50 falls below 100 nM for O=C1NCCn2nc(-c3ccncc3)c(-c3ccc(OCc4ccc(C5CC5)nc4)cc3)c21 [Compound 3] . satisfied
